Tested on: Aspergillus fumigatus
Experimental Details: Antifungal activity against Aspergillus fumigatus GIMCC 3.19 assessed as inhibition of growth incubated for 24 hrs by two-fold serial dilution method
Assay type: functional
// reported MIC for each item listed
Measurement Type: MIC (µg/mL)

Molecule	Numeric Readout
O=C(/C=C/C(=O)Nc1ccc2c(c1)NC(=O)C1(CCNC1=O)C2)Nc1ccc(F)cc1 (racemic)	64
O=C(CN1CCC(C(=O)Nc2ccc(F)cc2)CC1)Nc1ccc2c(c1)NC(=O)C1(CCNC1=O)C2 (racemic)	64
O=C(/C=C/C(=O)Nc1ccc2c(c1)NC(=O)C1(CCNC1=O)C2)Nc1ccc(F)c(Cl)c1 (racemic)	128
